- test target: EGFR on the surface of human tumour cells (A431, H292) (human, UniProt P00533 25-1210)
- experiment description: cell-based or functional assay
outcome measure: % inhibition of EGFR phosphorylation at 100 nM binder, cell-based assay (%)

>>> result_number("E57 (designed binder) 10Fn3 domain: MGVSDVPRDLEVVAATPTSLLISWIVQGGRYQYYRITYGETGGNSPVQEFTVPGMVTTATISGLKPGVDYTITVYAVTDYYNPSTHEYKYHQTPISINYRTEIDKPSQ")
75.5
>>> result_number("E56 (designed binder) 10Fn3 domain: MGVSDVPRDLEVVAATPTSLLISWYSGDYHYQYYRITYGETGGNSPVQEFTVPHDLETATISGLKPGVDYTITVYAVTDYYNPATHYYKYEQTPISINYRTEIDKPSQ")
84.2
>>> result_number("E50 (designed binder) 10Fn3 domain: MGVSDVPRDLEVVAATPTSLLISWTVGLSVYQYYRITYGETGGNSPVQEFTVPGMVSTATISGLKPSVDYTITVYAVTDYKPHADGPHTYHEYPISINYRTEIDKPSQ")
77.4
>>> result_number("E49 (designed binder) 10Fn3 domain: MGVSDVPRDLEVVAATPTSLLISWHSGPREYQYYRITYGETGGNSPVQEFTVPGQVYTATISGLKPGVDYTITVYAVTDFFNPITHYYYYELTPISINYRTEIDKPSQ")
83.5
